Data credit: patent US20210380703A1

targetOfAssay: T1, Human ACVR2A (human, UniProt P27037 20-135, limits assumed); note: test concentration or dose not given here
T1 construct: also called activin receptor, type II A
T1 sequence (P27037 20-135 limits assumed): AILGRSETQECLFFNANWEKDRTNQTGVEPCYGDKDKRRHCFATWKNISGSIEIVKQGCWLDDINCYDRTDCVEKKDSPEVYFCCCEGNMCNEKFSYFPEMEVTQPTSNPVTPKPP
assaySummary: ELISA
Below, each of the binders is paired with its reported optical density value.
Supply the numeric figure in OD, leaving out any unit text.

The examples below pair each entry with its known result.
binder	assayEndpoint	recordedValue
373_D10 (antibody, V domains shown) VH: EVQLLESGGGLVQPGGSLRLSCAASGFTFDSYSMNWVRQAPGKGLEWVSNINYNSGYKGYADSVKGRFTISRDNSKNTLYLQMNSLRAEDTAVYYCARSANWHDTALDYWGQGTLVTVSS VL: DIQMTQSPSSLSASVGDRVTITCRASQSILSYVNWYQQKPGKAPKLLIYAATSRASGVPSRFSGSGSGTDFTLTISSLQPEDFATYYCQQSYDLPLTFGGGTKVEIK	optical density	3.61
368_A09 (antibody, V domains shown) VH: EVQLLESGGGLVQPGGSLRLSCAASGFTFDSYSMNWVRQAPGKGLEWVSGINYNGGYTSYADSVKGRFTISRDNSKNTLYLQMNSLRAEDTAVYYCARSANWHDTHLDYWGQGTLVTVSS VL: DIQMTQSPSSLSASVGDRVTITCRASQSILSYVNWYQQKPGKAPKLLIYAVTSRASGVPSRFSGSGSGTDFTLTISSLQPEDFATYYCQQSYDSPLTFGGGTKVEIK	optical density	2.51
371_D09 (antibody, V domains shown) VH: EVQLLESGGGLVQPGGSLRLSCAASGFTFSSYSMNWVRQAPGKGLEWVSNINYNSGYTGYADSVKGRFTISRDNSKNTLYLQMNSLRAEDTAVYYCARSANWHDTALDYWGQGTLVTVSS VL: DIQMTQSPSSLSASVGDRVTITCRASQSILTYLNWYQQKPGKAPKLVIYAATSRASGVPSRFSGSGSGTDFTLTISSLQPEDFATYYCQQSYNNPLTFGGGTKVEIK	optical density	2.89
370_C01 (antibody, V domains shown) VH: EVQLLESGGGLVQPGGSLRLSCAASGFTFDSYSMNWVRQAPGKGLEWVSGINYNSGYTGYADSVKGRFTISRDNSKNTLYLQMNSLRAEDTAVYYCARSANWHDTALDYWGQGTLVTVSS VL: DIQMTQSPSSLSASVGDRVTITCRASQSILTYLNWYQQKPGKAPKLVIYAATSLASGVPSRFSGSGSGTDFTLTISSLQPEDFATYYCQQSYDTPLTFGGGTKVEIK	optical density	3.29

Measured optical density of 370_C09 (antibody, V domains shown) VH: EVQLLESGGGLVQPGGSLRLSCAASGFTFDSYGMNWVRQAPGKGLEWVSGINYNGGYTSYADSVKGRFTISRDNSKNTLYLQMNSLRAEDTAVYYCARSANWHDTALDYWGQGTLVTVSS VL: DIQMTQSPSSLSASVGDRVTITCRASQSIISYLNWYQQKPGKAPKLVIYAATSLASGVPSRFSGSGSGTDFTLTISSLQPEDFATYYCQQSYSTPLTFGGGTKVEIK : 1.97
